Let's look at some sequences and their measured protease stability score.
- ASSAY_REMARKS: protease stability score; higher = more stable; yeast display proteolysis, trypsin and chymotrypsin;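 note: relative to predicted unfolded state with 0 unfolded-like and 1 meaning tenfold more protease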
TEST_READOUT: protease stability score

[
  {
    "QUERY_SEQUENCE": "DEEERLDEEIMERIHKAYATGDFDEIKRLIDPHVRSDINGVDTHGRDDAIHYLHHVYRRLGFKHFELKHVESYDGRVHTDGWLRFNGQERRVEFRWQVIDGRIHSVSLRMK",
    "RECORDED_MEASUREMENT": 0.975
  },
  {
    "QUERY_SEQUENCE": "SDWDEWTKRMLDILIEALETGDEEVLSRLIDPNMRLDINGQEFHGREVILRHLITEIQRADHVEFRIEDRDLIDGRVYMEVEKIIHINGVEFRHHVLIIIEKVDGRWYINSVHVR",
    "RECORDED_MEASUREMENT": 2.46
  },
  {
    "QUERY_SEQUENCE": "TESEFMKEYANKHLTRHLETGDWKDFQRNVDPNARVDFNGVELIGREHAIKLFHEIRIEHLEIHDVKMQGDKLEVDGILHTRQGDKRHDLKVIIHMLKVDGKWVITEIEVR",
    "RECORDED_MEASUREMENT": 0.948
  },
  {
    "QUERY_SEQUENCE": "DELEHFALKFAEEWLQHYLTGNEEMISKLHDPHVKLHIGDKDLIGWEKFEEFLRETLSRVDHLHFNIRSVQSQGNKIVFDGKYIVIQGDKRYEFDIEFHIVVFNGRVHRIHYESH",
    "RECORDED_MEASUREMENT": 1.58
  }
]
